# System: Marburgvirus
# assay procedure: microbe, parasite or virus in culture
# run parameters: Orthomarburgvirus, Musoke, A549, 48 h
measured parameter: IC50 (nM)
Write the answer as a number in nM, unit excluded.

Prompt: # get_value(readout='IC50', item= COc1ccc2c(Oc3ccc(OCCN4CCCCC4)cc3)c(-c3ccc(Br)cc3)[s+]([O-])c2c1 (centres undefined) )
Response: 1810

Prompt: Please answer likewise for `CC/C(=C(/c1ccc(NC(=O)C2CCN(C3CCN(C)CC3)CC2)cc1)c1ccc(OCCN2CCCC2)cc1)c1ccccc1`
Response: 2050

Prompt: Moving on to `CC/C(=C(/c1ccc(NC(=O)CN2CCN(C)CC2)cc1)c1ccc(OCCN2CCCC2)cc1)c1ccccc1`
Response: 420

Prompt: Please do the same for `COc1ccc2c(Oc3ccc(OCCN4CCCCC4)cc3)c(-c3ccc(Br)cc3)sc2c1` as well.
Response: 1250

Prompt: Also need `CC1=C(c2ccc(O)cc2)[C@H](c2ccc(OCCN3CCCCC3)cc2)Oc2ccccc21` , thanks.
Response: 900

Prompt: Please do the same for `CCC(=C(c1ccc(OCCN2CCCC2)cc1)c1ccc(OCCN2CCCC2)cc1)c1ccccc1` as well.
Response: 610

Prompt: For CN(C)CCOc1ccc(/C(=C(/CCCl)c2ccccc2)c2ccccc2)cc1 [TOREMIFENE] then?
Response: 2600

Prompt: Ok, now OCCOc1ccc(/C(=C(/CCCl)c2ccccc2)c2ccccc2)cc1 [OSPEMIFENE]
Response: 34400

Prompt: Would you kindly repeat that for `Nc1ccc(-c2sc3cc(O)ccc3c2Oc2ccc(OCCN3CCCCC3)cc2)cc1` ?
Response: 1450
